- ASSAYED TARGET: Human immunodeficiency virus type 1 reverse transcriptase (Human immunodeficiency virus 1)
- TEST DESCRIPTION: Selectivity index is the […] values against inhibition of HIV-1 in MT-4 cells
- Type: functional, cell-based
- SETTINGS: MT4
MEASURED ENDPOINT: SI
# respond with the number and nothing more

Example cases with answers are listed next.
compound=Cc1cn([C@H]2C[C@H](F)[C@@H](CO)O2)c(=O)[nH]c1=O assayed_target="Human immunodeficiency virus type 1 reverse transcriptase (Human immunodeficiency virus 1)" value_reported=197
compound=COc1ccn([C@H]2C[C@H](F)[C@@H](CO)O2)c(=O)n1 assayed_target="Human immunodeficiency virus type 1 reverse transcriptase (Human immunodeficiency virus 1)" value_reported=7.6

Consider the additional compound presented here.
Query: I would be grateful if you could share the reported SI for "O=c1[nH]c(=O)n([C@H]2C[C@H](F)[C@@H](CO)O2)cc1Cl" .
Reply: 1410
